pIC50: −log10 of the molar value. Where a name gives a salt, the structure may show the parent alone.
What follows is a record of pIC50 for KRAS_WT and SOS1 (Homo sapiens).
Value Type: pIC50

• CN1CCC[C@H]1COc1nc(N2CC3CCC(C2)N3)c2cc(F)c(-c3cc(O)cc4ccccc34)c(F)c2n1 [Compound 160, dihydrochloride] = 6.41
• CCc1c(F)ccc2cc(O)cc(-c3c(F)cc4c(N5CC6CCC(C5)N6)nc(OC[C@H](C)CN5C6CCC5COC6)nc4c3F)c12 (single isomer, unassigned) [Compound 229a] = 6.80

(a) C=CCCOCCCN1CCC[C@H]1COc1nc(N2CC3CCC(C2)N3)c2cc(F)c(-c3cc(O)cc4ccc(F)c(CC)c34)c(F)c2n1 (single isomer, unassigned) [Compound 249, dihydrochloride]
(b) C[C@@H]1CN(CC2(COc3nc(N4CC5CCC(C4)N5)c4cc(Cl)c(-c5cc(O)cc6ccccc56)c(F)c4n3)CC2)C[C@H](C)O1 (single isomer, unassigned)
(c) Oc1cc(-c2c(Cl)cc3c(N4CC5CCC(C4)N5)nc(OC[C@@]45CCCN4C[C@H](F)C5)nc3c2F)c2c(F)c(F)ccc2c1 (single isomer, unassigned) [Compound 214a]
(d) CN1CCN(c2nc(N3CC4CCC(C3)N4)c3cc(Cl)c(-c4cc(O)cc5ccccc45)c(F)c3n2)CC1 (single isomer, unassigned) [Compound 52a]
Falling order of pIC50, please. // format: requested-order list of labels
c, a, b, d
(c: 8.10, a: 7.07, b: 6.71, d: 4.54)

(A) Oc1cc(-c2c(Cl)cc3c(N4CC5CCC(C4)N5)nc(OCCCN4CCOCC4)nc3c2F)c2ccccc2c1 (single isomer, unassigned) [Compound 54a]
(B) CN1CCC1CCOc1nc(N2CC3CCC(C2)N3)c2cc(Cl)c(-c3cc(O)cc4ccccc34)c(F)c2n1 (single isomer, unassigned) [Compound 112a]
Choose between A and B : whose measured pIC50 value is numerically larger? // caller expects the label of the chosen entry
A
(A: 5.92, B: 5.60)

----------
- Test Target: KRAS-G12D and SOS1 (Homo sapiens, UniProt P01116, G12D)
- Assay Protocol: Inhibition of KRAS-G12D/SOS1 binding (Cisbio binding kit, 665/615 ratio), Effect Embodiment A
- Measurement Parameters: read-out: GTP-KRAS-G12D:SOS1 IC50
pIC50: −log10 of the molar value.
Value Type: pIC50

Examples with answers:
* CO[C@@H](COc1nc(N2CC3CCC(C2)N3)c2cc(Cl)c(-c3cc(O)cc4ccccc34)c(F)c2n1)CN1CCCC[C@H]1C (single isomer, unassigned) [Compound 266] | 6.76
* Oc1cc(-c2c(Cl)cc3c(N4CC5CCC(C4)N5)nc(OCC4(CN5CCCC5)CC4)nc3c2F)c2ccccc2c1 (single isomer, unassigned) [Compound 97] | 7.72
* Oc1cc(-c2c(Cl)cc3c(N4CC5CCC(C4)N5)nc(OC[C@@]45CCCN4C[C@H](F)C5)nc3c2F)c2ccccc2c1 (single isomer, unassigned) [Compound 176] | 7.87

(I) CN(CCCOc1nc(N2CC3CCC(C2)N3)c2cc(Cl)c(-c3cc(O)cc4ccccc34)c(F)c2n1)CCC(O)CO (single isomer, unassigned) [Compound 148]
(II) Oc1cc(-c2c(Cl)cc3c(N4CC5CCC(C4)N5)nc(OCC4CCC5COCCN5C4)nc3c2F)c2ccccc2c1 (single isomer, unassigned) [Compound 264a]
Pick one: I or II . Which one has the lower reported pIC50? // caller expects the label of the chosen entry
I
(I: 7.54, II: 7.93)

----------
- Test Target: KRAS_G12D and cRAF (Homo sapiens, UniProt P01116, G12D)
- Sequence (P01116 1-188 isoform P01116-2 G12D): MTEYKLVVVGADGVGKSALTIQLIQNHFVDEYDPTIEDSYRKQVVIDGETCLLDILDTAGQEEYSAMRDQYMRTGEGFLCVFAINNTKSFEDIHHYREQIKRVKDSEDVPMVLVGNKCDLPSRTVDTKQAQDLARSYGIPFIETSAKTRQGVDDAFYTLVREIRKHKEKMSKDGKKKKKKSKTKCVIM
- Assay Protocol: Inhibition of KRAS_G12D/cRAF binding (Cisbio binding kit, 665/615 ratio), Effect Embodiment B
- Measurement Parameters: read-out: GTP-KRAS-G12D:CRAF IC50
pIC50: −log10 of the molar value. Structures can show the parent of a compound that is named as a salt.
Value Type: pIC50

Examples with answers:
- CC(COc1nc(N2CC3CCC(C2)N3)c2cc(Cl)c(-c3cc(O)cc4ccccc34)c(F)c2n1)CN1C2CCC1COC2 (single isomer, unassigned) [Compound 178b]: 6.82
- CN(C)C1CN(c2nc(N3CC4CCC(C3)N4)c3cc(Cl)c(-c4cc(O)cc5cccc(Cl)c45)c(F)c3n2)C1 (single isomer, unassigned) [Compound 65b]: 6.36
- C[C@@H]1CN(CCCOc2nc(N3CC4CCC(C3)N4)c3cc(Cl)c(-c4cc(O)cc5ccccc45)c(F)c3n2)C[C@H](C)O1 (single isomer, unassigned) [Compound 125, hydrochloride]: 6.77
- CN(C)CCCCOc1nc(N2CC3CCC(C2)N3)c2cc(Cl)c(-c3cc(O)cc4ccccc34)c(F)c2n1 (single isomer, unassigned) [Compound 60a]: 6.45
- C[C@@H]1COCCN1CCCOc1nc(N2C[C@H]3CC[C@@H](C2)N3)c2cc(Cl)c(-c3cc(O)cc4ccccc34)c(F)c2n1 (single isomer, unassigned) [Compound 181, diformate]: 6.87

(P) Oc1cc(-c2c(Cl)cc3c(N4CC5CCC(C4)N5)nc(OCCCN4CCNCC4)nc3c2F)c2ccccc2c1 (single isomer, unassigned) [Compound 92, dihydrochloride]
(Q) CN1CCC[C@H]1COc1nc(N2CC3CCC(C2)N3)c2cc(F)c(-c3cc(O)cc4ccccc34)c(F)c2n1 (single isomer, unassigned) [Compound 160a, dihydrochloride]
Pick one: P or Q . Which one has the lower reported pIC50? // caller expects the label of the chosen entry
P

----------
- Test Target: KRAS-G12D and SOS1 (Homo sapiens, UniProt P01116, G12D)
- Assay Protocol: Inhibition of KRAS-G12D/SOS1 binding (Cisbio binding kit, 665/615 ratio), Effect Embodiment A
- Measurement Parameters: read-out: GTP-KRAS-G12D:SOS1 IC50
- Experimental: Similarly, the first dilution point of the compound to be tested was its storage solution, and the solution was 3-fold diluted, with 11+0 points of dilution. Echo was used to transfer 0.2 μL gradient diluted solution of the compounds into a 384-well plate, with 2 duplicated wells for each compound, and the final concentration of DMSO was 1%. The solution was centrifuged for 1 min at 1000 rpm/min. IC50 of the compounds was fitted by Graphpad Prism 8 nonlinear regression equation: […]
pIC50: −log10 of the molar value. Counter-ions that a name gives are not always drawn.
Value Type: pIC50

• C[C@@H](COc1nc(N2CC3CCC(C2)N3)c2cc(Cl)c(-c3cc(O)cc4ccccc34)c(F)c2n1)CN(C)C (single isomer, unassigned) = 7.70
• C[C@@H]1COCCN1CCCOc1nc(N2C[C@H]3CC[C@@H](C2)N3)c2cc(Cl)c(-c3cc(O)cc4ccccc34)c(F)c2n1 (single isomer, unassigned) [Compound 181, diformate] = 7.42
• CC(C)(COc1nc(N2CC3CCC(C2)N3)c2cc(Cl)c(-c3cc(O)cc4ccccc34)c(F)c2n1)CN1CCCC1 (single isomer, unassigned) [Compound 102, dihydrochloride] = 7.70
• CCc1c(F)ccc2cc(O)cc(-c3c(Cl)cc4c(N5CC6CCC(C5)N6)nc(OCCCN5C6CCC5COC6)nc4c3F)c12 (single isomer, unassigned) = 7.56
• CN(C)C1CN(c2nc(N3C[C@H]4CC[C@@H](C3)N4)c3cc(Cl)c(-c4cc(O)cc5ccccc45)c(F)c3n2)C1 (single isomer, unassigned) [Compound 5b] = 4.20

(a) CN(C)C1CN(c2nc(N3CC4CCC(C3)N4)c3cc(Cl)c(-c4cccc5ccccc45)c(F)c3n2)C1 (single isomer, unassigned) [Compound 42b]
(b) Oc1cc(-c2c(Cl)cc3c(N4CC5CCC(C4)N5)nc(OCCCN4CC5CCC(C4)O5)nc3c2F)c2ccccc2c1 (single isomer, unassigned)
Pick one: a or b . Which one has the lower reported pIC50? // caller expects the label of the chosen entry
a
(a: 5.19, b: 7.45)

(1) CCc1cccc2cccc(-c3c(F)cc4c(N5CC6CCC(C5)N6)nc(OC[C@@]56CCCN5C[C@H](F)C6)nc4c3F)c12 (single isomer, unassigned) [Compound 281b, dihydrochloride]
(2) CC(F)(COc1nc(N2CC3CCC(C2)N3)c2cc(Cl)c(-c3cc(O)cc4ccccc34)c(F)c2n1)CN1C2CCC1COC2 (single isomer, unassigned) [Compound 208b]
Pick one: 1 or 2 . Which one has the lower reported pIC50? // caller expects the label of the chosen entry
1

----------
- Test Target: KRAS_G12D and cRAF (Homo sapiens, UniProt P01116, G12D)
- Assay Protocol: Inhibition of KRAS_G12D/cRAF binding (Cisbio binding kit, 665/615 ratio), Effect Embodiment B
- Measurement Parameters: read-out: GTP-KRAS-G12D:CRAF IC50
Where a name gives a salt, the structure may show the parent alone.
Value Type: IC50 (nM)

• CN(CCCOc1nc(N2CC3CCC(C2)N3)c2cc(Cl)c(-c3cc(O)cc4ccccc34)c(F)c2n1)CCC(O)CO (single isomer, unassigned) [Compound 148] = 122
• C[C@@H]1COC[C@@H](C)N1CCCOc1nc(N2C[C@H]3CC[C@@H](C2)N3)c2cc(Cl)c(-c3cc(O)cc4ccccc34)c(F)c2n1 (single isomer, unassigned) [Compound 164, dihydrochloride] = 115
• CN1CCCC1CCOc1nc(N2CC3CCC(C2)N3)c2cc(Cl)c(-c3cc(O)cc4ccccc34)c(F)c2n1 (single isomer, unassigned) [Compound 96b] = 156
• CC(C)CN(C)CCCOc1nc(N2C[C@H]3CC[C@@H](C2)N3)c2cc(Cl)c(-c3cc(O)cc4ccccc34)c(F)c2n1 (single isomer, unassigned) [Compound 115, dihydrochloride] = 130
• CCCN(C)CCCOc1nc(N2CC3CCC(C2)N3)c2cc(Cl)c(-c3cc(O)cc4ccccc34)c(F)c2n1 (single isomer, unassigned) [Compound 51a] = 144
